The measurements presented in this section are drawn from the supplement of paper PMC10126150.

# Tested on: ATP;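 also: ATP exposure 15 min at 22 °C before imaging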
# MEASUREMENT_DESCRIPTION: switch fluorescence ratio, 500 uM ATP over buffer (Cy3 cluster intensity, sum of 5 cycles each) (fold (ratio)); higher = stronger signal-on switching upon ATP binding; sequences stand for … in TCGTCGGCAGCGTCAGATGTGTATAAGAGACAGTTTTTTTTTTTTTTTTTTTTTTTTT…TC
# TEST_CONTEXT: aptamer strand: ATP DNA aptamer (quencher-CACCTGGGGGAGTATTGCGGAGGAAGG + anchor), 100 nM annealed; ATP concentration: 500 uM
// label 0 strictly below 1 in switch fluorescence ratio; label 1 otherwise

In [3]: df
Out[3]:
    sequence_text  class_name
 0     AATCACGGTG     label 1
 1     TACATAGGCA     label 1
 2     AGGCCAGGGG     label 1
 3     ACAAGGCAGA     label 1
 4     CTGTGGGTTA     label 0
 5     TCCTTTAACG     label 1
 6     AGCGCGTCGC     label 0
 7     ATCCGTGATA     label 1
 8     ACCGCATCGT     label 1
 9     GGGCGGGGCG     label 0
10     CTGCGTGGAG     label 1
11     TCTCCAGGGG     label 1
